System: UACC-62 melanoma
Method notes: NCI tumour cell line growth inhibition, 48 h
Experimental endpoint: TGI

>  <Molecule>
Cc1c(C)[n+](=O)c(C)c(C)n1[O-]

>  <Study target>
UACC-62 melanoma

>  <Endpoint value>
> 100 µM

$$$$
>  <Molecule>
O=C(Cc1cccc(OC(F)(F)F)c1)Nc1ccc(CCCCc2nnc(NC(=O)Cc3ccccn3)s2)nn1

>  <Study target>
UACC-62 melanoma

>  <Endpoint value>
> 100 µM

$$$$
>  <Molecule>
Cc1cccc(C2=NC(C)(C)C(C)(C)N=C2c2cccc(C)n2)n1

>  <Study target>
UACC-62 melanoma

>  <Endpoint value>
> 100 µM

$$$$
>  <Molecule>
O=C(OCc1ccccc1)C1(N2CN(C3(C(=O)OCc4ccccc4)CCCC3)CN(C3(C(=O)OCc4ccccc4)CCCC3)C2)CCCC1

>  <Study target>
UACC-62 melanoma

>  <Endpoint value>
> 10 µM

$$$$

Okay, now this molecule:
Give reported TGI value for COc1ccc(/C(=N/Nc2ccccc2)C(c2ccc(OC)cc2)C2OC(=O)c3ccccc32)cc1 (stereo not given)
> 100 µM

###

Entries and their measured GI50 follow.
Tested on: HOP-92 NSCLC
Method notes: NCI tumour cell line growth inhibition, 48 h

Item Cc1ccc2c(O)c(O)cc(NC(C)CCCN)c2n1 (stereo not given) : provide GI50
57.5 µM

Return GI50 (reported value) for this compound: Cc1cc(Cc2cc(C)cc(C(C)(C)C)c2O)c(O)c(C(C)(C)C)c1
4.37 µM

Give recorded GI50. COc1ccc2c(c1)C(=O)/C(=C/c1ncc([N+](=O)[O-])n1C)O2
1.23 µM

Please report the measured GI50 for C#Cc1c(C(N)=O)ncn1C1OC(COP(=O)(OCc2ccc([N+](=O)[O-])o2)N(C)CCCCCl)C(O)C1O (stereo not given)
51.2 µM

Output measured GI50 for this item: O=Nc1ccc2ccccc2c1O
13.4 µM

###

System: SF-295 CNS
Method notes: NCI tumour cell line growth inhibition, 48 h
Experimental endpoint: TGI

// below: answered compounds
>  <Compound>
Oc1[nH]c2ccccc2c1N=Nc1nc(-c2ccc(Cl)c(Cl)c2)cs1

>  <Study target>
SF-295 CNS

>  <TGI>
> 100 µM

$$$$
>  <Compound>
NC(N)=NNC(=O)CCCCCCCC(=O)NN=C(N)N

>  <Study target>
SF-295 CNS

>  <TGI>
> 100 µM

$$$$
>  <Compound>
N#Cc1c(N2CCCC2)ncn(Cc2ccccc2)c1=O

>  <Study target>
SF-295 CNS

>  <TGI>
> 100 µM

$$$$

Lab note: SF-295 CNS assay, enter TGI for C1CCC(OC2CSC2)OC1 (stereo unspecified) here
> 100 µM

Return reported TGI for target or system SF-295 CNS, item Cc1ccc(C(C2C(=O)N(C)C(=O)N(C)C2=O)C(F)(F)C(=O)N(C)C)cc1 (stereo unspecified) .
> 100 µM

Name the recorded TGI of C=CCNC(=O)NC1=CSC2=NC(=O)C3(NN12)c1ccccc1-c1ccccc13 , assay system SF-295 CNS.
> 10 µM

###

Test system: NCI/ADR-RES ovarian
Method notes: NCI tumour cell line growth inhibition, 48 h
Experimental endpoint: TGI

>  <Compound>
Cc1cn(CC2=NCC(C)(C)N2)c(=O)[nH]c1=O

>  <Endpoint value>
> 100 µM

$$$$

Quick one: give measured TGI for C#Cc1c(C(N)=O)ncn1C1OC(COP(=O)(OCc2ccc([N+](=O)[O-])o2)N(C)CCCCCl)C(O)C1O (stereo unspecified)
> 100 µM

Identify the reported TGI for the following entry. Cc1cc(Cc2cc(C)cc(C(C)(C)C)c2O)c(O)c(C(C)(C)C)c1
21.8 µM

Return the recorded TGI value; entry: O=C(N/N=C/c1ccc([N+](=O)[O-])cc1)c1ccc2nc(-c3ccc(Cl)cc3)[nH]c2c1
> 100 µM

Report measured TGI; entry is COc1cc2c[n+](C)c3c4ccccc4ccc3c2cc1OC (tested in a mixture with another compound)
> 100 µM

Identify the reported TGI for the following entry. COc1ccc2c(c1)C(c1ccccc1Cl)=Nc1c(n[nH]c1C)N2
> 25 µM

###

System: CCRF-CEM leukemia
Method notes: NCI tumour cell line growth inhibition, 48 h
Quick reference for TGI among some compounds

Example entries begin here.
>  <Cpd smiles>
NC(=S)Nc1[nH]c(=S)nc2c1SC1=N/C(=C\c3ccco3)C(=O)N12

>  <TGI>
> 85.4 µM

$$$$
>  <Cpd smiles>
CC(=O)CCCCO

>  <TGI>
> 100 µM

$$$$

Read the entry O=c1c(C=Nc2ccc([N+](=O)[O-])cc2)c(O)n(-c2ccccc2)c(=O)n1-c1ccccc1 and write its reported TGI.
> 100 µM

Kindly indicate its recorded TGI. Item: COc1ccc(N=N/C(=N/NC(=O)c2ccccc2)c2ccc(N(CCC#N)CCC#N)cc2C)cc1
> 100 µM

###

System: ACHN renal
Method notes: NCI tumour cell line growth inhibition, 48 h
Experimental endpoint: GI50

>  <Compound>
O=C(N/N=C/c1ccc([N+](=O)[O-])cc1)c1ccc2nc(-c3ccc(Cl)cc3)[nH]c2c1

>  <GI50>
4.36 µM

$$$$
>  <Compound>
Cc1c2c[n+](C(C)C)ccc2c(C)c2c1[nH]c1ccccc12

>  <GI50>
22.6 µM

$$$$
>  <Compound>
COc1cc(-c2nc3sc4c(c3c(=O)[nH]2)CCCCCC4)cc(OC)c1OC

>  <GI50>
1.79 µM

$$$$
>  <Compound>
CCN1c2ccccc2C(Cl)(c2ccc(N(C)C)cc2)c2ccccc21

>  <GI50>
12.4 µM

$$$$
>  <Compound>
CCCCCCCCCCCCSC(=N)N

>  <GI50>
3.89 µM

$$$$

Let me know recorded GI50 for COc1ccc(Cl)cc1NC(=O)C(Br)C(Br)C(=O)O (centres undefined) , thanks.
17.2 µM

###

Catalogue of TGI readings, one per entry.
System: SK-MEL-5 melanoma
Method notes: NCI tumour cell line growth inhibition, 48 h

Known TGI results, listed for orientation:
>  <Compound>
CC(=O)OC1(C)C(=O)OC1(C)C(C)=O (centres undefined)

>  <TGI>
> 100 µM

$$$$
>  <Compound>
O=[N+]([O-])c1ccc(N=Nc2c(O)c(S(=O)(=O)O)cc3cc(S(=O)(=O)O)ccc23)cc1

>  <TGI>
> 100 µM

$$$$
>  <Compound>
c1ccc2c(c1)[nH]c1cnc3c4cccnc4[nH]c3c12

>  <TGI>
39.9 µM

$$$$

# evaluate next
Give the reported TGI for this compound. COc1ccccc1NC(=O)C1=C(C)NC(C)=C(C(=O)Nc2ccccc2OC)C1c1ccc(C)cc1
> 100 µM

###

Tested on: NCI-H522 lung
Method notes: NCI tumour cell line growth inhibition, 48 h
TGI listing for selected compounds.

Using known records, supply TGI for O=C1Cc2c([nH]c3ccc(Br)cc23)-c2ccccc2N1
> 100 µM

For CCN(c1ccc(Br)cc1)c1c(Br)c(=O)nc2ccccn12 , write its TGI.
> 100 µM

Item Cc1cc(S(=O)(=O)O)c(NC(=O)C(=O)C2C=CCS2(=O)=O)cc1Cl (stereo not drawn) : provide TGI
> 100 µM

###

Entries and their TGI
System: IGROV1 ovarian
Method notes: NCI tumour cell line growth inhibition, 48 h

Look over these answered cases.
>  <Molecule>
Fc1ccc(N=NN2CCCC2)cc1

>  <Study target>
IGROV1 ovarian

>  <TGI>
> 100 µM

$$$$
>  <Molecule>
COC(=O)/C=C(/C(=O)OC)c1c(C)c(C)c2c(C)cc(C)cc(C)c1-2

>  <Study target>
IGROV1 ovarian

>  <TGI>
> 100 µM

$$$$

Consider the molecule O=S1(=O)c2ccccc2C(=NO)c2ccccc21 . State its measured TGI.
> 100 µM

###

Listed here: items and their measured TGI.
Tested on: SNB-19 CNS
Method notes: NCI tumour cell line growth inhibition, 48 h

>  <Compound>
C/C(=N\NC(N)=S)C(CN(CC(C)C)CC(C)C)C(=O)Nc1ccc(C)cc1C (stereo unspecified)

>  <Endpoint value>
> 100 µM

$$$$
>  <Compound>
C=C(c1ccc(C(=O)N(C)c2ccccc2N)cc1)C(C)N1C(=O)[C@H]2CCCN2C(=O)c2ccccc21 (stereo partly specified)

>  <Endpoint value>
> 100 µM

$$$$
>  <Compound>
COc1cc(CC2c3cc(OC)c(OC)cc3CCN2C)c(Oc2cc3c(cc2OC)-c2c(O)c(OC)cc4c2C(C3)N(C)CC4)cc1OC (stereo unspecified)

>  <Endpoint value>
57.4 µM

$$$$
>  <Compound>
CN(C)CCSC(=Nc1ccccc1)N1CCCCC1

>  <Endpoint value>
> 100 µM

$$$$
>  <Compound>
Cc1cc(=O)oc2cc(OCc3c(F)cccc3Cl)ccc12

>  <Endpoint value>
> 100 µM

$$$$

# return recorded TGI for entry O=C1C(Br)=CC2(C=C1Br)CCNC1=C2C(=O)c2cccnc2C1=O
20 µM

Note TGI for the compound shown: C1OC1CO[C@@H]1CO[C@H]2[C@@H]1OC[C@H]2OCC1CO1 (stereo partly specified)
> 100 µM

Please give the documented TGI of COc1ccccc1/C=N\N=C(N/N=C/c1ccccc1OC)N/N=C/c1ccccc1OC
> 100 µM

Give TGI for the following compound: COc1cccc(/C=N/[N-]C(N)=O)c1[O-].[Ni+2].[OH3+].c1cnc2c(c1)ccc1cccnc12
> 100 µM

Give recorded TGI. O=C(Cc1cccc(OC(F)(F)F)c1)Nc1ccc(CCCCc2nnc(NC(=O)Cc3ccccn3)s2)nn1
> 100 µM

State its TGI for this compound: C1CCC(OC2CSC2)OC1 (stereo unspecified)
> 100 µM
